system: SF-539 CNS; assay: NCI tumour cell line growth inhibition, 48 h
Rule: rule met for TGI not less than 30 µM, rule not met for anything less.

[
  {
    "molecule": "O=C1C=C2SC3C[C@@]24CC1(O)[N+]1=c2c4c(c(O)c4c2=C(C=N4)CC1)N3",
    "label class": "rule not met"
  },
  {
    "molecule": "COC(=O)CC(=O)OC1C[C@@H]2CCC3C(C)(C)CCC[C@]3(C)C23CC[C@@]1(C)C3 (some centres undefined)",
    "label class": "rule met"
  },
  {
    "molecule": "NP1(Oc2ccc(F)cc2)=NP(N)(Oc2ccc(F)cc2)=NP(Oc2ccc(F)cc2)(Oc2ccc(F)cc2)=N1 (centres undefined)",
    "label class": "rule not met"
  },
  {
    "molecule": "COC(OC)c1cccc2c1C(=O)CCC1(CC2)OCCCCO1",
    "label class": "rule met"
  },
  {
    "molecule": "CC1=Nc2ccccc2S/C1=C1/C=NC(=NC#N)N=C1C(=O)Nc1cccc(Cl)c1",
    "label class": "rule met"
  },
  {
    "molecule": "CCOC(=O)Nc1cc2c(c(N)n1)N=C(c1ccc(Cl)cc1Cl)CN2",
    "label class": "rule not met"
  },
  {
    "molecule": "O=C1N[C@@H]([C@H]2CC[C@H](Cl)CN2)C(=O)N[C@H]1[C@H]1CC[C@H](Cl)CN1",
    "label class": "rule not met"
  },
  {
    "molecule": "O=C1c2c(c3c4ccccc4n(CC4CO4)c3c3[nH]c4ccccc4c23)C(=O)N1Cc1ccccc1 (centres undefined)",
    "label class": "rule met"
  }
]

----------
test system: IGROV1 ovarian; assay: NCI tumour cell line growth inhibition, 48 h
The reader will find reported TGI values listed item by item below.
parameter: TGI

[
  {
    "structure notation": "O=C1CCNC/C1=C\\c1ccccc1",
    "reading": "> 100 µM"
  },
  {
    "structure notation": "O=[N+]([O-])c1ccc(N=P(c2ccccc2)(c2ccccc2)c2ccccc2)n2nnnc12",
    "reading": "> 100 µM"
  },
  {
    "structure notation": "CCCCCCCCCC(=O)Oc1ccc(/C(=C(/C)c2ccccc2)c2ccc(OCCN3CCCC3)cc2)cc1",
    "reading": "19.5 µM"
  },
  {
    "structure notation": "COc1cc(OC)c(/C=C/S(=O)(=O)Cc2ccc(OC)c(N)n2)c(OC)c1",
    "reading": "> 100 µM"
  },
  {
    "structure notation": "O=C(O)CN(CCN(CC(=O)O)CC(=O)O)CC(=O)O.[Cu+2].[Na+]",
    "reading": "> 100 µM"
  }
]

----------
tested on: MCF7 breast; experiment: NCI tumour cell line growth inhibition, 48 h; in the data active = GI50 below about 0.43 µM; inactive = the rest
Outcomes: TRUE for active, FALSE for inactive

[
  {
    "compound": "CCOC(=O)c1c(CN2CCCCC2)nc2ccc(Cl)cc2c1-c1ccccc1",
    "label class": "FALSE"
  },
  {
    "compound": "CC1CCc2c(C(=O)Nc3ncc(Cc4cccc([N+](=O)[O-])c4)s3)csc2C1 (stereo not given)",
    "label class": "TRUE"
  },
  {
    "compound": "O=C(CC1(O)C(=O)Nc2ccc(Cl)cc21)c1ccc(C(=O)NCC2CCC3(CC2)OOC2(CCCCC2)OO3)cc1 (stereo not given)",
    "label class": "FALSE"
  },
  {
    "compound": "CNC(=O)c1sc(-n2cnc3cc(OC)c(OC)cc32)cc1OCc1ccccc1C(F)(F)F",
    "label class": "FALSE"
  },
  {
    "compound": "COC(=O)c1sc(-n2cnc3cc(OC)c(OC)cc32)cc1OCc1ccccc1C(F)(F)F",
    "label class": "FALSE"
  },
  {
    "compound": "COc1ccc(/C(=C(\\c2ccccc2)[N+](=O)[O-])c2ccc(OCCN3CCCC3)cc2)cc1",
    "label class": "TRUE"
  },
  {
    "compound": "c1c2c(cc3c1OCO3)-c1ncc3cc4c(cc3c1C2)OCO4",
    "label class": "TRUE"
  },
  {
    "compound": "N#Cc1cnn(C(=O)c2nn(-c3ccc(Cl)cc3)cc2O)c1N",
    "label class": "TRUE"
  },
  {
    "compound": "COc1cc(F)c(F)c(Nc2ccc(I)cc2F)c1NS(=O)(=O)C1(CC(O)CO)CC1 (stereo not given)",
    "label class": "FALSE"
  },
  {
    "compound": "O=C(/C=C/c1ccco1)Nc1ncc(Cc2cc(Cl)ccc2Cl)s1",
    "label class": "TRUE"
  }
]

----------
test system: K-562 leukemia; assay: NCI tumour cell line growth inhibition, 48 h
The reader will find reported TGI values listed item by item below.

[
  {
    "compound": "N#Cc1sc2nc3c(c(-c4ccccc4)c2c1N)CCCC3",
    "TGI": "> 100 µM"
  },
  {
    "compound": "CC(C)C(Sc1nc(N)nc2nc[nH]c12)C(=O)O (stereo unspecified)",
    "TGI": "> 100 µM"
  },
  {
    "compound": "O=C1c2ccc3c4c(ccc(c24)C(=O)N1CCCCO)C(=O)N(CCCCO)C3=O",
    "TGI": "> 100 µM"
  },
  {
    "compound": "COc1cc(C(=O)/C=C/c2c[nH]c3ccccc23)cc(OC)c1OC",
    "TGI": "12.5 µM"
  },
  {
    "compound": "CC1CCc2c(C(=O)Nc3ncc(Cc4cccc([N+](=O)[O-])c4)s3)csc2C1 (stereo unspecified)",
    "TGI": "> 100 µM"
  },
  {
    "compound": "NC1=Nc2ncccc2C(=O)NN1",
    "TGI": "> 10 µM"
  }
]

----------
The reader will find reported GI50 values listed item by item below.
system: MALME-3M melanoma; test: NCI tumour cell line growth inhibition, 48 h

[
  {
    "molecule": "CCCCCn1sc(=O)n(Cc2ccc(CNC(=O)C(C)c3ccc(CC(C)C)cc3)cc2)c1=O (centres undefined)",
    "GI50": "1430 nM"
  },
  {
    "molecule": "Cc1ccc2nc(CN(CCN(Cc3nc4ccc(C)cc4[nH]3)Cc3nc4ccc(C)cc4[nH]3)Cc3nc4ccc(C)cc4[nH]3)[nH]c2c1",
    "GI50": "1470 nM"
  },
  {
    "molecule": "Oc1ccccc1/C=N\\NC(=S)Nc1ccc(F)cc1",
    "GI50": "1200 nM"
  },
  {
    "molecule": "O=C(O)CCCCCNCc1cc2cc3c(cc2c2cc(OCc4ccccc4)ccc12)OCO3",
    "GI50": "1880 nM"
  }
]

----------
tested on: MDA-MB-231 breast; assay: NCI tumour cell line growth inhibition, 48 h; in the data active = GI50 below about 0.43 µM; inactive = the rest
Outcomes: active, inactive

[
  {
    "compound": "O=C(NCCN1CCOCC1)c1cc2c(Oc3ccc(NC(=O)C4(C(=O)Nc5ccc(F)cc5)CC4)cc3)ccnc2[nH]1",
    "label class": "inactive"
  },
  {
    "compound": "Cc1ccc(C)c(N2CCN(c3ccncc3N)CC2)c1",
    "label class": "inactive"
  },
  {
    "compound": "CSc1ccc(-c2cn3ccsc3n2)cc1",
    "label class": "inactive"
  },
  {
    "compound": "Cc1ccc2nc(CN(CCN(Cc3nc4ccc(C)cc4[nH]3)Cc3nc4ccc(C)cc4[nH]3)Cc3nc4ccc(C)cc4[nH]3)[nH]c2c1",
    "label class": "inactive"
  },
  {
    "compound": "CN1CCN(Cc2ccc(NC(=O)c3cncc(C#Cc4c(N)ncc5ccccc45)c3)cc2C(F)(F)F)CC1",
    "label class": "active"
  },
  {
    "compound": "CCOC(=O)c1c(CN2CCCCC2)nc2ccc(Cl)cc2c1-c1ccccc1",
    "label class": "inactive"
  },
  {
    "compound": "O=C(CC1(O)C(=O)Nc2ccc(Cl)cc21)c1ccc(C(=O)NCC2CCC3(CC2)OOC2(CCCCC2)OO3)cc1 (stereo unspecified)",
    "label class": "inactive"
  },
  {
    "compound": "COC(=O)[C@]12CC[C@@H](C)[C@H](C)[C@@H]1C1=CC[C@@H]3[C@@]4(C)C[C@@H](OC(C)=O)[C@H](OC(C)=O)[C@@](C)(COC(C)=O)[C@@H]4[C@H](O)C[C@@]3(C)[C@]1(C)CC2",
    "label class": "inactive"
  },
  {
    "compound": "CC1OC(O[C@@H]2C=C3CC[C@@H]4[C@H](CC[C@]5(C)[C@@H](c6ccc(=O)oc6)CC[C@]45O)[C@@]3(C)CC2)C(O)C(O)C1O (stereo partly specified)",
    "label class": "active"
  },
  {
    "compound": "O=C1c2ccc3c4c(ccc(c24)C(=O)N1CCCCO)C(=O)N(CCCCO)C3=O",
    "label class": "inactive"
  },
  {
    "compound": "Oc1ccccc1/C=N\\NC(=S)Nc1ccc(F)cc1",
    "label class": "inactive"
  }
]
